# Test system: Jurkat cells
# measurementDescription: Lectin staining for fucose expression inhibition, Jurkat cells
# Assay type: cell-based
# measurementConditions: Homo sapiens, 72 h, 3 days, 0-512 μM compound, AAL lectin, flow cytometry, n=3, read-out: EC50 for fucose expression inhibition, Jurkat AAL
Consider the following compounds; for each one, report its EC50.

# EC50 of CC(=O)OC1C(OC(C)=O)[C@H](OC(C)=O)C(C(F)F)O[C@@H]1OP(=O)(OCCSC(C)=O)OCCSC(C)=O (stereo partly drawn) [P-D-Rha6F2-1P (9)] = 5.93 µM

# EC50 of CC(=O)OC1C(OC(C)=O)[C@H](OC(C)=O)C(C(F)(F)F)O[C@@H]1OP(=O)(OCCSC(C)=O)OCCSC(C)=O (stereo partly drawn) [P-D-Rha6F3-1P (10)] = 27.7 µM

# EC50 of CC(=O)OCC1O[C@H](OP(=O)(OCCSC(C)=O)OCCSC(C)=O)C(OC(C)=O)C(OC(C)=O)[C@@H]1OC(C)=O (stereo partly drawn) [P-D-Man-1P (6)] = > 500 µM

# EC50 of CC(=O)OC1C(OC(C)=O)[C@H](OC(C)=O)C(C)O[C@@H]1OP(=O)(OCCSC(C)=O)OCCSC(C)=O (stereo partly drawn) [P-D-Rha-1P (7)] = > 500 µM

# EC50 of CC(=O)OC1C(OC(C)=O)[C@H](OC(C)=O)C(CF)O[C@@H]1OP(=O)(OCCSC(C)=O)OCCSC(C)=O (stereo partly drawn) [P-D-Rha6F-1P (8)] = 174 µM
